# IC50 per record follows
- target: HDM2 (Homo sapiens, UniProt Q00987)
- Construct: Thioredoxin (N); made in house; host or cells: E. coli strain BL21(DE3)Rosetta
- Sequence (Q00987 17-125): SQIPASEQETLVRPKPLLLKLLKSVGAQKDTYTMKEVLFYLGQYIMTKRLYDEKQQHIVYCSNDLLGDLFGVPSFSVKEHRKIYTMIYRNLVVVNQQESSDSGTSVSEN
- protocol notes: HDM2 FRET assay (inhibition of binding of FITC labeled p53-pocket peptide to HDM2)
- particulars: 0.5 nM HDM2 (residues 17 to 125), 3nM peptide, two hour incubation at room temperature; read-out: FRET IC50
API: value field is a number in nM; no unit string.

Prompt: Which IC50 reading was recorded for the compound C[C@@H](Nc1nc(C(=O)NS(C)(=O)=O)nc2nc(N3CCOC[C@H]3c3ccccc3)n(C[C@H]3CC[C@H](C)CC3)c12)C1CCC1 ?
Completion: 0.585

Prompt: Moving on to CC[C@@H]1COCCN1c1nc2nc(-c3n[nH]c(=O)o3)nc(-c3cccc(Cl)c3)c2n1C[C@H]1CC[C@H](C)CC1
Completion: 21.4

Prompt: Moving on to C[C@H]1CC[C@H](Cn2c(N3CCOC[C@H]3c3ccccc3)nc3nc(-c4noc(=O)[nH]4)nc(-c4cccc(Cl)c4F)c32)CC1
Completion: 1.44

---

- target: HDM2 (Homo sapiens, UniProt Q00987)
- Construct: Thioredoxin (N); made in house; host or cells: E. coli strain BL21(DE3)Rosetta
- protocol notes: HDM2 FRET assay (inhibition of binding of FITC labeled p53-pocket peptide to HDM2)
- particulars: Table 18; read-out: FRET IC50
reported metric: pIC50
Please treat pIC50 as minus the base-10 logarithm of the molar concentration.

CC(C)c1ccnc(-c2nc3nc(C(=O)O)nc(N[C@H](C)C4CCC4)c3n2C[C@H]2CC[C@H](CF)CC2)c1 :: 8.03
CC([C@H]1CC[C@H](C)CC1)n1c(N2CCC[C@H]2C(F)(F)F)nc2nc(-c3noc(=O)[nH]3)nc(-c3cncc(Cl)c3)c21 (stereo partly shown) :: 9.17
CCC1=CCC(Cn2c(-c3cc(C(C)C)ccn3)nc3nc(C(=O)O)nc(N[C@H](C)C4CCC4)c32)CC1 (stereo partly shown) [Example 18.24] :: 7.80
CC([C@H]1CC[C@H](C)CC1)n1c(N2CCOC[C@H]2C)nc2nc(-c3noc(=O)[nH]3)nc(N[C@H](C)C3CCC3)c21 (single isomer, unassigned) [Example 18.13] :: 8.64
CC[C@H]1CC[C@H](Cn2c(-c3cccc(C)c3)nc3nc(C(=O)O)nc(N[C@H](C)C4CCC4)c32)CC1 :: 6.70
CC[C@H]1CC[C@H](Cn2c(N3CCCCC3)nc3nc(C(=O)O)nc(N[C@H](C)C4CCC4)c32)CC1 :: 8.07
CC1=CCC(Cn2c(-c3cc(C(C)C)ccn3)nc3nc(C(=O)O)nc(N[C@H](C)C4CCC4)c32)CC1 (stereo partly shown) :: 8.19
CCC1CC=C(Cn2c(-c3cc(C(C)C)ccn3)nc3nc(C(=O)O)nc(N[C@H](C)C4CCC4)c32)CC1 (stereo partly shown) :: 7.58

Prompt: Which pIC50 reading was recorded for the molecule CC([C@H]1CC[C@H](C)CC1)n1c(N2CCOC[C@H]2C)nc2nc(-c3n[nH]c(=O)o3)nc(-c3cccc(Cl)c3)c21 (single isomer, unassigned) [Example 18.35] ?
Completion: 8.30

Prompt: Moving on to CCC1CCC(Cn2c(-c3cc(C(C)C)ccn3)nc3nc(-c4noc(=O)[nH]4)nc(N[C@H](C)C4CCC4)c32)C1 (stereo partly shown)
Completion: 6.88

---

- target: HDM2 (Homo sapiens, UniProt Q00987)
- Construct: Thioredoxin (N); made in house; host or cells: E. coli strain BL21(DE3)Rosetta
- protocol notes: FRET assay (HDM2 inhibition; method not described in this part)
- Type: binding
- particulars: Table 5
# IC50 per record follows
API: value field is a number in nM; no unit string.

Completed entries (count: 5):
Cc1cccc(-c2nc3nc(C(=O)O)nc(N[C@H](C)C4CC4)c3n2C(C)c2ccc(Cl)cc2)c1 (stereo partly shown) [Example 5.1] :: 855
Cc1cccc(-c2nc3nc(C(=O)O)nc(N[C@H](C)C4CCC4)c3n2Cc2ccc(Cl)cc2Cl)c1 [Example 5.11] :: 259
CCOc1cc(C(F)(F)F)ccc1Cn1c(-c2cccc(C)c2)nc2nc(C(=O)O)nc(N[C@H](C)C3CCC3)c21 [Example 5.18] :: 207
Cc1cccc(-c2nc3nc(C(=O)O)nc(N[C@H](C)C4CC4)c3n2Cc2ccc(C(F)(F)F)c(Cl)c2)c1 [Example 5.15] :: 609
CCc1ccc(Cn2c(-c3cccc(C)c3)nc3nc(C(=O)O)nc(N[C@H](C)C4CC4)c32)cc1 [Example 5.20] :: 1200

Prompt: Which IC50 reading was recorded for the molecule Cc1cccc(-c2nc3nc(C(=O)O)nc(N[C@H](C)C4CC4)c3n2Cc2ccc(C(F)(F)F)c(F)c2)c1 [Example 5.9] ?
Completion: 119

Prompt: Moving on to CCOc1ccccc1Cn1c(-c2cccc(C)c2)nc2nc(C(=O)O)nc(N[C@H](C)C3CCC3)c21 [Example 5.6]
Completion: 1840

---

- target: HDM2 (Homo sapiens, UniProt Q00987)
- Construct: Thioredoxin (N); made in house; host or cells: E. coli strain BL21(DE3)Rosetta
- protocol notes: HDM2 FRET assay (inhibition of binding of FITC labeled p53-pocket peptide to HDM2)
- particulars: Table 23; read-out: FRET IC50
pIC50: −log10 of the molar value.
Assign satisfied whenever pIC50 does not fall below 8; assign not satisfied whenever it does.

Here's what some known entries look like.
C[C@H]1CC[C@H](Cn2c(C(O)C3CCOCC3)nc3nc(-c4noc(=O)[nH]4)nc(-c4cccc(Cl)c4)c32)CC1 (mixture of isomers) :: not satisfied
C[C@H]1CC[C@H](Cn2c(C3(F)CCC3)nc3nc(-c4n[nH]c(=O)o4)nc(-c4cncc(Cl)c4)c32)CC1 :: not satisfied
C[C@H]1CC[C@H](Cn2c(C(=O)C3CCOCC3)nc3nc(-c4n[nH]c(=O)o4)nc(-c4cccc(Cl)c4)c32)CC1 :: not satisfied
COC(c1ccccc1)c1nc2nc(-c3noc(=O)[nH]3)nc(-c3cccc(Cl)c3)c2n1C[C@H]1CC[C@H](C)CC1 (single isomer, unassigned) :: satisfied
Cc1ocnc1C1(c2nc3nc(-c4noc(=O)[nH]4)nc(-c4cccc(Cl)c4)c3n2C[C@H]2CC[C@H](C)CC2)CC1 :: not satisfied
COC(c1ccccc1C#N)c1nc2nc(-c3noc(=O)[nH]3)nc(-c3cncc(Cl)c3)c2n1C[C@H]1CC[C@H](C)CC1 (mixture of isomers) :: satisfied

Prompt: Item C[C@H]1CC[C@H](Cn2c(C3(F)CCCCC3)nc3nc(-c4noc(=O)[nH]4)nc(-c4cncc(Cl)c4)c32)CC1 with pIC50 of 8 or above?
Completion: not satisfied

---

- target: HDM2 (Homo sapiens)
- Construct: Thioredoxin (N); made in house; host or cells: E. coli strain BL21(DE3)Rosetta
- protocol notes: HDM2 FRET assay (inhibition of binding of FITC labeled p53-pocket peptide to HDM2)
- particulars: Table 21; read-out: FRET IC50
# log10(IC50) per record follows
The figures below represent log10 of IC50, where IC50 is stated in nM.

CC(c1ccccc1F)c1nc2nc(-c3noc(=O)[nH]3)nc(N[C@H](C)C3CCC3)c2n1C[C@H]1CC[C@H](C)CC1 (single isomer, unassigned) [Example 21.35] :: 0.31
C[C@@H](Nc1nc(C(=O)O)nc2nc(C3CCCCC3c3ccccc3)n(Cc3ccc(C(F)(F)F)cc3)c12)C1CCC1 (stereo partly drawn) [Example 21.12] :: 0.66
C[C@@H](Nc1nc(-c2noc(=O)[nH]2)nc2nc(C3=C(c4ccccc4)CCCC3)n(C[C@H]3CC[C@H](C)CC3)c12)C1CCC1 [Example 21.16] :: 1.09
C[C@@H](Nc1nc(C(=O)O)nc2nc(C3COCC3c3ccccc3)n(Cc3ccc(C(F)(F)F)cc3)c12)C1CCC1 (single isomer, unassigned) [Example 21.7] :: 1.46

Prompt: Which log10(IC50) reading was recorded for the molecule CC(c1ccccc1)c1nc2nc(-c3noc(=O)[nH]3)nc(N[C@H](C)C3CCC3)c2n1C[C@H]1CC[C@H](C)CC1 (single isomer, unassigned) [Example 21.14] ?
Completion: 1.30

Prompt: Moving on to C[C@@H](Nc1nc(-c2noc(=O)[nH]2)nc2nc(C3CCCCC3c3ccccc3)n(C[C@H]3CC[C@H](C)CC3)c12)C1CCC1 (single isomer, unassigned) [Example 21.25]
Completion: 1.46

Prompt: Moving on to C[C@@H](Nc1nc(-c2noc(=O)[nH]2)nc2nc(C3=CCCCC3)n(C[C@H]3CC[C@H](C)CC3)c12)C1CCC1 [Example 21.37]
Completion: 0.58

Prompt: Moving on to C[C@@H](Nc1nc(-c2n[nH]c(=O)o2)nc2nc(C3CCCCC3)n(C[C@H]3CC[C@H](C)CC3)c12)C1CCC1 [Example 21.40]
Completion: 0.63

Prompt: Moving on to C[C@@H](Nc1nc(-c2noc(=O)[nH]2)nc2nc(C3CCCCC3)n(C[C@H]3CC[C@H](C)CC3)c12)C1CCC1 [Example 21.39]
Completion: 0.90

Prompt: Moving on to C[C@@H](Nc1nc(C(=O)O)nc2nc(C3=C(c4ccccc4)CCC3)n(Cc3ccc(C(F)(F)F)cc3)c12)C1CCC1 [Example 21.4]
Completion: 0.84

Prompt: Moving on to C[C@@H](Nc1nc(C(=O)O)nc2nc(C3=C(c4ccccc4)CCCC3)n(Cc3ccc(C(F)(F)F)cc3)c12)C1CCC1 [Example 21.3]
Completion: 0.76

Prompt: Moving on to C[C@@H](Nc1nc(-c2noc(=O)[nH]2)nc2nc(/C=C/c3ccccc3)n(C[C@H]3CC[C@H](C)CC3)c12)C1CCC1 [Example 21.20]
Completion: 0.28
